target: T1, OC43 S1B+C (S1B and S1C domains of the hCoV-OC43 spike glycoprotein) (human coronavirus OC43, UniProt P36334 321-675)
T1 construct: also called recombinant OC43 S1B+C; recombinant OC43 protein; source: Expi293F, transfected, purified from supernatant (Ni-NTA IMAC, SEC); not shown: His6, C-terminal, cleaved
T1 sequence (looked up): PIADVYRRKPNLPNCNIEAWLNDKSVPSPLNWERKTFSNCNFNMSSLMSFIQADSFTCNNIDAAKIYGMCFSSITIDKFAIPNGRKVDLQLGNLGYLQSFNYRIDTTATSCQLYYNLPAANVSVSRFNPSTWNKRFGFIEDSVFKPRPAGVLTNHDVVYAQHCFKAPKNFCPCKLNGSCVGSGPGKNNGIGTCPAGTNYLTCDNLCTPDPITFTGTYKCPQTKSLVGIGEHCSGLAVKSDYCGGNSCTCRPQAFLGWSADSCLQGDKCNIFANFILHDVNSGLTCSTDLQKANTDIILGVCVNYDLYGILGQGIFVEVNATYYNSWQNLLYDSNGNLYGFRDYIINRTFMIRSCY
testSummary: BLI
appliedConditions: both partners purified
Recorded measurements of Kd, one per entry
Give just the number in nM; leave the unit off.

WNb 281 (VHH) VHH: QVQLQESGGGLVQAGGSLRLSCAASGRTFSDYFMGWFRQAPGKEREFVTAISWSGGSTYYADSVKGRFTISRDNAKNTVFLQMNSLKPEDTAVYYCAAALDEGWARVAGPEYDYWGQGTQVTVSS
1.55
WNb 287 (VHH) VHH: QLQESGGGLVQPGGSLRLSCAASGRTFSFSDYAMGWFRQAPGKEREFVASISWSGGTTYYADSVKGRFTISRDNAKNTVYLQMNSLKPEDTAVYYCAAEIDRGLLLHAVYEYDYWGQGTQVTVSS
11.2
WNb 279 (VHH) VHH: QVQLQESGGGLVQPGGSLRLSCAASGRTFSDYFMGWFRQAPGKEREFVAAITWSGGSTYYTDSVKGRFTISRDNAKNTVYLQMNSLKPEDTAVYYCAGGLDMGWSRVALGEYDYWGQGTQVTVSS
149

Next, consider the following binder.
Can you look up the measured Kd of WNb 282 (VHH) VHH: QVQLQESGGGLVQAGDSLRLSCAASGRTFSDYFMGWFRQAPGKEREFVASISWSGGTTYYADSVKGRFTISRDNAKNTVYLQMNRVKSEDTAVYYCAAARDMGWGRTGENEYDYWGQGTQVTVSS for me?
2.46
